Measurement name: Ki (nM)
Response body: numeric value in nM, unit text excluded.

The compound CCN(CC)c1ccc2c(-c3ccc(S(=O)(=O)NCCCCCC(=O)NCCN4[C@@H]5CC[C@@H]4[C@@H](C(=O)OC)[C@@H](c4ccc(Cl)c(Cl)c4)C5)cc3S(=O)(=O)[O-])c3ccc(=[N+](CC)CC)cc-3oc2c1 , tested on Sodium-dependent serotonin transporter (Homo sapiens), showed Ki of 392

# value of Ki, Sodium-dependent serotonin transporter (Homo sapiens), item CCN(CC)c1ccc2c(-c3ccc(S(=O)(=O)NCCCCCC(=O)NCCC(=O)Nc4cccc(-c5ccc6c(c5)COC6(CCCN(C)C)c5ccc(F)cc5)c4)cc3S(=O)(=O)[O-])c3ccc(=[N+](CC)CC)cc-3oc2c1 (stereo not drawn) = 225

Result for CN(C)CCCC1(c2ccc(F)cc2)OCc2cc(-c3cccc(N)c3)ccc21 (stereo not drawn) , tested on Sodium-dependent serotonin transporter (Homo sapiens), Ki: 390

###

# System: Sodium-dependent noradrenaline transporter (Homo sapiens)
# Sequence (P23975 whole entry): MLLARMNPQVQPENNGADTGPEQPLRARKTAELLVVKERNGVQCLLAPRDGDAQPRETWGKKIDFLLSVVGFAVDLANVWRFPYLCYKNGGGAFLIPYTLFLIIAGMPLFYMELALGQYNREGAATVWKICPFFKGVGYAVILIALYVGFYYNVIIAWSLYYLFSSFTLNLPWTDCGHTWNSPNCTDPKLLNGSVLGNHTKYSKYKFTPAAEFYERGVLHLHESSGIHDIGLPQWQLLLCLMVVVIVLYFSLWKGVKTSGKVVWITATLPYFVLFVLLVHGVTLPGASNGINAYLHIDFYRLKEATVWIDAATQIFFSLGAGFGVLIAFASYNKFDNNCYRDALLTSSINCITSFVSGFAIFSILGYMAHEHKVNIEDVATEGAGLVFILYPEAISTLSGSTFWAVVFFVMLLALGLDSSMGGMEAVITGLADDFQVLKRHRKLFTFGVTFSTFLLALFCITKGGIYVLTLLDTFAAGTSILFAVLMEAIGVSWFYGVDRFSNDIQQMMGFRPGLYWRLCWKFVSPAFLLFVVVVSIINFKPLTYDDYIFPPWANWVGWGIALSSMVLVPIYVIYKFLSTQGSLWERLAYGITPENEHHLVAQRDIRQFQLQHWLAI
# Assay notes: Inhibition of [3H]dopamine uptake at human NET expressed in COS7 cells after 5 mins by beta-counting
Consider the following molecules; for each one, report its Ki.
Write it as a number; the unit µM goes unstated.

get_value(item= CCN(CC)c1ccc2c(-c3ccc(S(=O)(=O)NCCCCCC(=O)NCCN4[C@@H]5CC[C@@H]4[C@@H](C(=O)OC)[C@@H](c4ccc(Cl)c(Cl)c4)C5)cc3S(=O)(=O)[O-])c3ccc(=[N+](CC)CC)cc-3oc2c1 , readout=Ki) returns 0.194

The reported Ki of the molecule CCN(CC)c1ccc2c(-c3ccc(S(=O)(=O)NCCCCCC(=O)NCCC(=O)Nc4cccc(-c5ccc6c(c5)COC6(CCCN(C)C)c5ccc(F)cc5)c4)cc3S(=O)(=O)[O-])c3ccc(=[N+](CC)CC)cc-3oc2c1 (configuration not stated) was 11.8
